Hello, the source for this data is ChEMBL document CHEMBL4732086, in case you need it.

The entries below come with measured log10 IC50 values attached.
# MEASUREMENT TARGET: CDC7/DBF4 (Cell division cycle 7-related protein kinase/Activator of S phase kinase) (Homo sapiens)
# Sequence (Q9UBU7 whole entry): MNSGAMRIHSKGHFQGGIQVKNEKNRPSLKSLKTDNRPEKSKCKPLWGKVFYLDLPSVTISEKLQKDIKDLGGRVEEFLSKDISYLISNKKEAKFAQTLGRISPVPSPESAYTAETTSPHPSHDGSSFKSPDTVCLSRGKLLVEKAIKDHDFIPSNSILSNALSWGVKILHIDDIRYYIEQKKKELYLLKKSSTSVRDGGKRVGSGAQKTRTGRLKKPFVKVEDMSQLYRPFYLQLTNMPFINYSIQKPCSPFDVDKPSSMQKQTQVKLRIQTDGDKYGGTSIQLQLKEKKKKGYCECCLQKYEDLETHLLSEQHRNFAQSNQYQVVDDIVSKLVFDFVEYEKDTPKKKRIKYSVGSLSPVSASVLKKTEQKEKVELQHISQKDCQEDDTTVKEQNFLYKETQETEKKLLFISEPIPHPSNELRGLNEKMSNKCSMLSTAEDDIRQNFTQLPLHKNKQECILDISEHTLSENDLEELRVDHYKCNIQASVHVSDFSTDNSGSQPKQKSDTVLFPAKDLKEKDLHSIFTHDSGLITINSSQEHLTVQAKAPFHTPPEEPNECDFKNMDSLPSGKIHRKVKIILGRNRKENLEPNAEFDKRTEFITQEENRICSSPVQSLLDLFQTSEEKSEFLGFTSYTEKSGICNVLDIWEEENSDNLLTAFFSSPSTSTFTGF
# Sequence (O00311 whole entry): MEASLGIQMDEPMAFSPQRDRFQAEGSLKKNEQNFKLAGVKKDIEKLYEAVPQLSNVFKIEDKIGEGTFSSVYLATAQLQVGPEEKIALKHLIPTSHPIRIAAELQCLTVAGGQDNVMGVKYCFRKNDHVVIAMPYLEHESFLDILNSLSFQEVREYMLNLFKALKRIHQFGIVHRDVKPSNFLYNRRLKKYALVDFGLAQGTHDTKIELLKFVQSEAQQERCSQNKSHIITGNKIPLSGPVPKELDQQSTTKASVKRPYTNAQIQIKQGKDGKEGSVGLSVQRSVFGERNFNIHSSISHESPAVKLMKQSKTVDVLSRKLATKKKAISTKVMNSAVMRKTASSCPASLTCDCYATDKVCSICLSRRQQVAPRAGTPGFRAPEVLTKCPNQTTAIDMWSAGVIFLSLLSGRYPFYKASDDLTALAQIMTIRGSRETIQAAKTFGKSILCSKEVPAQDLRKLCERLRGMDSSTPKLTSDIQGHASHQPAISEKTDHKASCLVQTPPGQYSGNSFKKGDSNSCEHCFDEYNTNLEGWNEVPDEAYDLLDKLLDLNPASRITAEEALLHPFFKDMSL
# PROTOCOL: Inhibition of recombinant human CDC7/Dbf4 expressed in baculovirus infected Sf9 insect cells assessed as inhibition of fluorescein labelled substrate phosphorylation in presence of ATP measured after 60 mins by TR-FRET assay
// units: nM (pre-log); metric: IC50; scale: log10

Qu. Record request: log10 IC50 value, item O=C(CSc1[nH]cnc2ncnc1-2)c1ccc(Cl)cc1
Ans. 3.62

Qu. Record request: log10 IC50 value, item O=C(CSc1ncnc2[nH]cnc12)c1ccc(Br)cc1
Ans. 3.33

Qu. Record request: log10 IC50 value, item Ic1cccc(CSc2ncnc3[nH]cnc23)c1
Ans. 1.90
